The reported measurements were obtained from patent US11078222B2.

Lag Phase: recorded values
Test system: rat liver mitochondria (RLM)
Test: Mitochondrial transmembrane electric potential (safranine fluorescence)
Assay type: biochemical
Conditions: Glutamate/Malate, 5 μM
// return numeric value only (unit: s, not printed)

Please review the entries below; each comes with its answer.
O=C(NCCCCCC[P+](c1ccccc1)(c1ccccc1)c1ccccc1)c1cc(O)c(O)c(O)c1.[Br-] [AntiOxBEN2] ... 147.5
O=C(CCCCC[P+](c1ccccc1)(c1ccccc1)c1ccccc1)NCCCCCCNC(=O)c1cc(O)c(O)c(O)c1.[Br-] [AntiOxBEN3] ... 154.5
COC1=C(OC)C(=O)C(CCCCCCCCCC[P+](c2ccccc2)(c2ccccc2)c2ccccc2)=C(C)C1=O.CS(=O)(=O)[O-] [MitoQ, reference compound] ... 84.5

# next compound below
Record request: Lag Phase value, item O=C(NCCCCCC[P+](c1ccccc1)(c1ccccc1)c1ccccc1)c1ccc(O)c(O)c1.[Br-] [AntiOxBEN1]
137.8
